target: furin, P09958; test: furin cleavage Z-score vs untreated control; higher = more cleavage, active = 3.5 or more, inactive = 1 or less, 8 variable residues between constant flanks; details: 15 min;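 further: purified furin at 1:10 enzyme:substrate in 50 mM HEPES pH 7.5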
Sequence (P09958 whole entry): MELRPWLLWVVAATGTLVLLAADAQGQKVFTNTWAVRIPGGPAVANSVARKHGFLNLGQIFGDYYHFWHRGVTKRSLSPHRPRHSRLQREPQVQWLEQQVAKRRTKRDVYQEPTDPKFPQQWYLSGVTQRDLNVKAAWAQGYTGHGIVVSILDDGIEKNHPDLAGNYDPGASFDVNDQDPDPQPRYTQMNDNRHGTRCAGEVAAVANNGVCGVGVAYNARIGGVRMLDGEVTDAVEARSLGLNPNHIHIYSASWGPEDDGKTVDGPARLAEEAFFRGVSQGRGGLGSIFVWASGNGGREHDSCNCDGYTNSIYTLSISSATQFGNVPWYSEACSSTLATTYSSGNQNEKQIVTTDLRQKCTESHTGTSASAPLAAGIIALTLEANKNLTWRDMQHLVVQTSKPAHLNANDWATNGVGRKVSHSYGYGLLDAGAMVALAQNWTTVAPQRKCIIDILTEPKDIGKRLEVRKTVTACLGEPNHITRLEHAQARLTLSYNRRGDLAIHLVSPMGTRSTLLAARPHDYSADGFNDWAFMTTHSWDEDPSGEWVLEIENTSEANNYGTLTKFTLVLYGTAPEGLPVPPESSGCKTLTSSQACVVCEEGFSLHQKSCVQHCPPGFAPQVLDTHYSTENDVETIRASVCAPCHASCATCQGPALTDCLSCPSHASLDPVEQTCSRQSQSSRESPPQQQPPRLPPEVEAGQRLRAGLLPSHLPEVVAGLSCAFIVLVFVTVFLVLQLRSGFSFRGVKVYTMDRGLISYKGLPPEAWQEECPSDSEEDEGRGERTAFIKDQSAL
Some of the results follow. The true hit rate is not given.
MEASUREMENT KIND: furin cleavage Z-score

Recorded furin cleavage Z-score, per entry:
sequence_data="CAQRSRQKKTAGNASASA [FS-1392]" reading="-0.885 (inactive)"
sequence_data="CAPMSRGDRFAGNASASA [FS-701]" reading="-0.0648 (inactive)"
sequence_data="CAQWIRVKRTAGNASASA [FS-372]" reading="8.77 (active)"
sequence_data="CAPGSRKARFAGNASASA [FS-280]" reading="8.81 (active)"
sequence_data="CARIFRSSDFAGNASASA [FS-2030]" reading="-0.809 (inactive)"

*Q* What measured furin cleavage Z-score goes with CARPRRGIIFAGNASASA [FS-3021] ?
*A* 1.16

*Q* What measured furin cleavage Z-score goes with CASWNRVARTAGNASASA [FS-199] ?
*A* 4.02 (active)

*Q* What measured furin cleavage Z-score goes with CAMPRRRGRFAGNASASA [FS-1037] ?
*A* 1.44
